These data points were gathered from PubChem BioAssay.

inhibition for assorted compounds
experimentSummary: human hepatoma cell viability loss – ATP luminescence, cytotoxicity control for P. falciparum antimalarial project, primary screen (AID 2303);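 further: 0% = DMSO wells and 100% = digitonin-killed cells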
appliedConditions: HepG2 viability, 24-48 h, at 10 µM, hits give high values
Just the number in %, nothing appended.

Would you please look over these solved cases?
| compound | inhibition [%] |
| --- | --- |
| COc1ccc2nccc(NN=Cc3cccc([N+](=O)[O-])c3)c2c1 | 4 |
| CC(C)CNC(=O)c1cncc(-c2ccc(CNC3Cc4ccccc4C3)cc2)c1 | 5 |
| CCOc1ccnc(=O)[nH]1 | -4 |

// lookup inhibition for Nc1c(Cl)cc(C(O)CNCCCCCOCCc2ccc3ccccc3n2)cc1Cl (centres undefined)
9

// lookup inhibition for COc1ccccc1N1CCN(Cc2c(O)ccc3cc(Br)ccc23)CC1
8

// lookup inhibition for Cc1ccc(NC(=O)c2ccc(CN3CCCN(Cc4cccc(O)c4)CC3)cc2)cc1C
33

// lookup inhibition for CCCN1CCC(NCc2cn(C)nc2-c2ccc(Oc3ccccc3)cc2)CC1
34

// lookup inhibition for CN1CCN(c2cc(-c3cccnc3)nc(-c3ccncc3)n2)CC1
11
